These data points were gathered from patent EP4772535A1.

Molecular target: T1, human/cynomolgus monkey ROR1 protein (Acro Biosystems, Cat. No.: RO1-H522y) (human/cynomolgus monkey, UniProt Q01973 30-403)
T1 construct: Bought SPR analyte
T1 sequence (Q01973 30-403 limits assumed): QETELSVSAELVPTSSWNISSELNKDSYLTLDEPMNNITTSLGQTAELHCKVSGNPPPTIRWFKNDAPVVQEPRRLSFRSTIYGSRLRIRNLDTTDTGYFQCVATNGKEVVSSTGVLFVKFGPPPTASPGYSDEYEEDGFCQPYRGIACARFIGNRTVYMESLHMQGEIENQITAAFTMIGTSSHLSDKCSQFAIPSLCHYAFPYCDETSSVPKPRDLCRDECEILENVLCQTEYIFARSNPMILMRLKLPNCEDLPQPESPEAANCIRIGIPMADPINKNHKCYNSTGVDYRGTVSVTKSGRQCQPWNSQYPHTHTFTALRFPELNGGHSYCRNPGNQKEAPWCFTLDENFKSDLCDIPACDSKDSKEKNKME
Assay: SPR (Biacore), antibody captured on anti-hIgG CM5 chip, ROR1 protein as analyte, 1:1 model

binder	kon [M⁻¹ s⁻¹]
ch135A2B10 (antibody, human IgG1, kappa, V domains shown, also called chimeric antibody of m135A2B10) VH: DVKLVESGGGLVTPEGSLKLSCAASGFAFSTYGMAWVRQTPEKRLEWVASIHKGGFSTYYPDNVKGRFTISRDNDKNTLYLQMSSLKSEDTAMYYCIRHDWDGAMDYWGQGTSVTVSS VL: DIVLTQSPSSMYASLGERVTITCKASQDINSYLNWFQQKPGKSPKTLIYRANRLVDGVPSRFSGSGSGQDYSLTISSLEYEDLGIYYCLQFDEFPYTFGGGTKLEIKR	941000
